Assay: Aqueous solubility (buffer vs acetonitrile/water, LC-UV)
Format: physicochemical
Details: pH 2.2
Assay Metric: Solubility at pH value 2.2 (μg/mL)
Please state the figure in μg/mL; there is no need to write the unit.

Use the examples below as a reference point.
| Molecule | Experimental Result |
| --- | --- |
| Cc1cc(C(N)=O)cc(C)c1-c1ccc(F)c(CNc2ccc([C@H]3C[C@@H]3C(=O)O)nc2)c1 [Example 27] | 62 |
| O=C(O)[C@H]1C[C@@H]1c1ccc(NCc2cc(-c3c(F)cccc3F)ccc2F)cn1 [Example 39] | 46 |
| Cc1cc(OCC2(O)CCOCC2)cc(C)c1-c1ccc(F)c(CNc2ccc([C@H]3C[C@@H]3C(=O)O)nc2)c1 [Example 49] | 83 |
| Cc1cc(OCCC(C)(C)O)cc(C)c1-c1ccc(F)c(CNc2ccc([C@H]3C[C@@H]3C(=O)O)nc2)c1 [Example 19] | 81 |
| Cc1cc(C(=O)O)cc(C)c1-c1ccc(F)c(CNc2ccc([C@H]3C[C@@H]3C(=O)O)nc2)c1 [Example 45] | 69 |

# input molecule: O=C(O)[C@H]1C[C@@H]1c1ccc(NCc2cc(-c3c(F)cc(F)cc3F)ccc2F)cn1 [Example 23] ; wanted: its Solubility at pH value 2.2
53

Suppose we examine the molecule Cc1cc(OCc2ccccc2)cc(C)c1-c1ccc(F)c(CNc2ccc([C@H]3C[C@@H]3C(=O)O)nc2)c1 [Example 12] ; what Solubility at pH value 2.2 value has been reported?
27

Data request, read-out Solubility at pH value 2.2, for Nc1cc(F)c(-c2ccc(F)c(CNc3ccc([C@H]4C[C@@H]4C(=O)O)nc3)c2)c(F)c1 [Example 34]
79

Consider the molecule O=C(O)[C@H]1C[C@@H]1c1ccc(NCc2cc(-c3ccccc3C(F)(F)F)ccc2F)cn1 [Example 37] and give its measured Solubility at pH value 2.2.
68

So what does the record say about Solubility at pH value 2.2 for Cc1cc(-c2ccnn2C)cc(C)c1-c1ccc(F)c(CNc2ccc([C@H]3C[C@@H]3C(=O)O)nc2)c1 [Example 55] ?
53

What does the record list as Solubility at pH value 2.2 for COc1cc(OC)c(-c2ccc(F)c(CNc3ccc([C@H]4C[C@@H]4C(=O)O)nc3)c2)c(OC)c1 [Example 31] ?
88

Requested read-out: Solubility at pH value 2.2. Entry: Cc1cccc(C)c1-c1ccc(F)c(CNc2ccc([C@H]3C[C@@H]3C(=O)O)nc2)c1 [Example 41]
59

Consider the molecule shown here: O=C(O)[C@H]1C[C@@H]1c1ccc(NCc2cc(-c3c(F)cc(OC4CC4)cc3F)ccc2F)cn1 [Example 33] What is its recorded Solubility at pH value 2.2?
53

----------
Assay: Aqueous solubility (buffer vs acetonitrile/water, LC-UV)
Format: physicochemical
Details: pH 2.2
Assay Metric: Solubility at pH value 2.2 (μg/mL)
Write down the numeric answer in μg/mL and omit the unit.

| Entry Smiles | Solubility at pH value 2.2 [μg/mL] |
| --- | --- |
| Cc1cc(OCC(C)(C)O)cc(C)c1-c1ccc(F)c(CNc2ccc([C@H]3C[C@@H]3C(=O)O)nc2)c1 | 82 |

Entry "O=C(O)[C@H]1C[C@@H]1c1ccc(NCc2cc(-c3c(Cl)cccc3Cl)ccc2F)cn1" : reported Solubility at pH value 2.2 = ?
53

----------
Assay: Aqueous solubility (buffer vs acetonitrile/water, LC-UV)
Type: physicochemical
Conditions: pH 2.2 buffer, 24 h shaking, 2.5% DMSO; examples in this invention
Quick rule: Solubility at pH value 2.2 of at least 60 μg/mL means yes (1), below that means no (0).

Reference set (4 entries):
| Molecule | Answer Label |
| --- | --- |
| CCc1cccc(CC)c1-c1ccc(F)c(CNc2ccc([C@H]3C[C@@H]3C(=O)O)nc2)c1 [Example 53] | no (0) |
| O=C(O)[C@H]1C[C@@H]1c1ccc(NCc2cc(-c3ccc(-c4cnco4)cc3)ccc2F)cn1 [Example 32] | no (0) |
| Cc1cc(-c2ccn(C)c(=O)n2)cc(C)c1-c1ccc(F)c(CNc2ccc([C@H]3C[C@@H]3C(=O)O)nc2)c1 [Example 56] | yes (1) |
| Cc1cnc(-c2cc(C)c(-c3ccc(F)c(CNc4ccc([C@H]5C[C@@H]5C(=O)O)nc4)c3)c(C)c2)nc1 [Example 51] | no (0) |

Read the next record carefully.
# check: Solubility at pH value 2.2 of CC(C)c1ccccc1-c1ccc(F)c(CNc2ccc([C@H]3C[C@@H]3C(=O)O)nc2)c1 [Example 50] is greater than or equal to 60 μg/mL
no (0)

----------
Biological target: human GPR40 receptor (Homo sapiens (Human))
Sequence (O14842 whole entry): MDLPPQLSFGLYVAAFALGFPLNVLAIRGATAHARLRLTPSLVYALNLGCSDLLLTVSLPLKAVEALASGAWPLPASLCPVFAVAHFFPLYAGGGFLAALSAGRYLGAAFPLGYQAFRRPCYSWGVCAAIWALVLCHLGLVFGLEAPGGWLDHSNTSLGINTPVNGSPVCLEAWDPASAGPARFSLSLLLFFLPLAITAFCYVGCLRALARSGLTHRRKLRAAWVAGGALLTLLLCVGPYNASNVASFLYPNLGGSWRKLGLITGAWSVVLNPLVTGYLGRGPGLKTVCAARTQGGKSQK
Assay: IP1 accumulation measurements using the IPOne assay system
Settings: 1321N1 cells stably expressing human GPR40, 1 h at 37° C.
pEC50: −log10 of the molar value.
Threshold check on pEC50: at or above 7 gives satisfied, strictly below gives not satisfied.

| Compound | Answer Label |
| --- | --- |
| Cc1cc(OCC2(O)CCSCC2)cc(C)c1-c1ccc(F)c(CNc2ccc([C@H]3C[C@@H]3C(=O)O)nc2)c1 [Example 48] | satisfied |
| Cc1cc(OCC2(O)CCS(=O)(=O)CC2)cc(C)c1-c1ccc(F)c(CNc2ccc([C@H]3C[C@@H]3C(=O)O)nc2)c1 [Example 46] | not satisfied |

API: the following record is the query input.
Assess whether reported pEC50 for Cc1cc(C(=O)N(C)C)cc(C)c1-c1ccc(F)c(CNc2ccc([C@H]3C[C@@H]3C(=O)O)nc2)c1 [Example 42] sits at 7 or higher.
not satisfied

----------
Target: human GPR40 receptor (Homo sapiens (Human))
Test: IP1 accumulation measurements using the IPOne assay system
Conditions: 1321N1 cells stably expressing human GPR40, 1 h at 37° C.
// values below are reported pEC50
Units for pEC50: none; it is -log10 of a concentration expressed in mol/L.

The cases that follow already have their pEC50 on record.
| Molecule | Target Of Assay | Experimental Result |
| --- | --- | --- |
| Cc1cccc(C)c1-c1ccc(F)c(CNc2ccc([C@H]3C[C@@H]3C(=O)O)nc2)c1 [Example 41] | human GPR40 receptor (Homo sapiens (Human)) | 7.39 |
| O=C(O)[C@H]1C[C@@H]1c1ccc(NCc2cc(-c3c(F)cc(F)cc3F)ccc2F)cn1 [Example 23] | human GPR40 receptor (Homo sapiens (Human)) | 6.30 |
| Cc1cc(-c2cc(=O)n(C)cn2)cc(C)c1-c1ccc(F)c(CNc2ccc([C@H]3C[C@@H]3C(=O)O)nc2)c1 [Example 18] | human GPR40 receptor (Homo sapiens (Human)) | 7.64 |

Proceed to the following item.
Give the measured pEC50 of COc1cc(OC)c(-c2ccc(F)c(CNc3ccc([C@H]4C[C@@H]4C(=O)O)nc3)c2)c(OC)c1 [Example 31] .
6.34

----------
Property: Solubility at pH value 2.2; scope: individual compounds
Assay: Aqueous solubility (buffer vs acetonitrile/water, LC-UV)
Type: physicochemical
Conditions: pH 2.2
// note: answer is a bare numeric in μg/mL

Look over these answered cases.
| Compound | Solubility at pH value 2.2 / μg/mL |
| --- | --- |
| Cc1cc(-c2cc(=O)n(C)cn2)cc(C)c1-c1ccc(F)c(CNc2ccc([C@H]3C[C@@H]3C(=O)O)nc2)c1 | 72 |
| Cc1cc(-c2ccn(C)c(=O)c2)cc(C)c1-c1ccc(F)c(CNc2ccc([C@H]3C[C@@H]3C(=O)O)nc2)c1 [Example 16] | 79 |
| Cc1cc(CO)cc(C)c1-c1ccc(F)c(CNc2ccc([C@H]3C[C@@H]3C(=O)O)nc2)c1 | 48 |
| Cc1cc(-c2nnn(C)n2)cc(C)c1-c1ccc(F)c(CNc2ccc([C@H]3C[C@@H]3C(=O)O)nc2)c1 | 56 |
| COc1cc(-c2cc(C)c(-c3ccc(F)c(CNc4ccc([C@H]5C[C@@H]5C(=O)O)nc4)c3)c(C)c2)ccn1 | 57 |

# get_value(readout='Solubility at pH value 2.2', item= "Cc1cc(C(=O)N(C)C)cc(C)c1-c1ccc(F)c(CNc2ccc([C@H]3C[C@@H]3C(=O)O)nc2)c1" )
71

Consider the compound "Cc1cc(OCC2(O)CCSCC2)cc(C)c1-c1ccc(F)c(CNc2ccc([C@H]3C[C@@H]3C(=O)O)nc2)c1" and give its measured Solubility at pH value 2.2.
67

----------
Experiment: Aqueous solubility (buffer vs acetonitrile/water, LC-UV)
Assay type: physicochemical
Conditions: pH 2.2
Protocol: The aqueous solubility of the compounds of the invention is determined by comparing the amount dissolved in buffer to the amount in an acetonitrile/water (1/1) solution. Starting from a 10 mM DMSO stock solution aliquots are diluted with acetonitrile/water (1/1) or buffer, respectively. After 24 h of shaking, the solutions are filtrated and analyzed by LC-UV. The amount dissolved in buffer is compared to the amount in the acetonitrile solution.
Entries and their Solubility at pH value 2.2 values follow.
Answer in μg/mL, number only, no unit symbol.

| Entry Smiles | Solubility at pH value 2.2 / μg/mL |
| --- | --- |
| Cc1cc(C#N)cc(C)c1-c1ccc(F)c(CNc2ccc([C@H]3C[C@@H]3C(=O)O)nc2)c1 | 59 |

Any idea what its Solubility at pH value 2.2 is? The compound is "Cc1cc(OCC(C)(C)C#N)cc(C)c1-c1ccc(F)c(CNc2ccc([C@H]3C[C@@H]3C(=O)O)nc2)c1"
49

// data source = patent US10919859B2
